Run Description: In vivo kinetic test of CPT
Design: species or system SD mice
Run Parameters: SD, mouse, plasma, iv; lactone form CPT, 1 mg/kg vein injection
Property Measured: half-life
Please provide the amount together with its unit, number first.

Fill in: half-life of CC[C@@]1(O)C(=O)OCc2c1cc1n(c2=O)Cc2cc3ccccc3nc2-1 [CPT-DMSO, camptothecin] is ___
15 min

----------
Run Description: In vivo kinetic test of CPT
Design: species or system SD mice
Run Parameters: SD, mouse, plasma, iv; lactone form CPT, 1 mg/kg vein injection; read-out: Vss
Property Measured: Vd
Write the numeric value and follow it with the unit.

Fill blank: measured Vd of the molecule CC[C@@]1(O)C(=O)OCc2c1cc1n(c2=O)Cc2cc3ccccc3nc2-1 [CPT-DMSO, camptothecin] is ____.
23.9 L/kg

----------
Run Description: In vivo kinetic test of CPT
Design: species or system SD mice
Run Parameters: SD, mouse, plasma, intravenous; 1 hour, 1 mg/kg CPT vein injection; read-out: lactone form CPT in plasma
Property Measured: concentration at 1 h (ng/mL)
Provide the reading as a plain figure in ng/mL.

Please report the recorded concentration at 1 h for CC[C@@]1(O)C(=O)OCc2c1cc1n(c2=O)Cc2cc3ccccc3nc2-1 [CPT-DMSO, camptothecin] .
3.1

----------
Run Description: In vivo kinetic test of CPT
Design: species or system SD mice
Run Parameters: SD, mouse, plasma, iv; lactone form CPT, 1 mg/kg vein injection
Protocol: The concentrations of lactone form CPT in bloods over the time were then determined by HPLC. T1/2 (hr), AUCINF(hr*ng/ml), CL(mL/hr/kg), and Vss (mL/kg) in Table 2 represent half-life time, area under the curve to infinity, clearance, and volume of distribution at steady state, and the units thereof, respectively. The n represents sample number. These parameters can be measured and/or calculated according to the techniques known in the art.
Property Measured: clearance (L/h/kg)
Form entry: value (L/h/kg) — number only.

What value of measured clearance is listed for CC[C@@]1(O)C(=O)OCc2c1cc1n(c2=O)Cc2cc3ccccc3nc2-1 ?
69.4

----------
Run Description: In vivo kinetic test of CPT
Design: species or system SD mice
Run Parameters: SD, mouse, plasma, intravenous; 0.5 hour, 1 mg/kg CPT vein injection; read-out: lactone form CPT in plasma
Property Measured: concentration at 0.5 h (ng/mL)
// note: answer is a bare numeric in ng/mL

concentration at 0.5 h lookup needed for CC[C@@]1(O)C(=O)OCc2c1cc1n(c2=O)Cc2cc3ccccc3nc2-1 , thanks.
11.6
